Tested on: NKL (IL-2 2.5 ng/mL);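 also: normalised to DMSO-only wells as negative and benzethonium chloride as positive control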
Assay Text: percent inhibition of viability; higher = more inhibition
Run Conditions: 72 h; 10000 nM
Readout Name: percent inhibition of viability (%)

In [3]: df
Out[3]:
                                   molecule                     readout_name  unit_spec  reading
0  CN(C[C@@H]1COCCO1)S(=O)(=O)Nc1ccc2ccc3ncc(-c4cnn(C)c4)cc3c(=O)c2c1 [MK-2461] (max concentration tested 10000 nM)  percent inhibition of viability          %       30
1  CC(C)C(=O)Nc1ccc([N+](=O)[O-])c(C(F)(F)F)c1 [Flutamide] (max concentration tested 10000 nM)  percent inhibition of viability          %    -13.1
2  COc1ccc(S(=O)(=O)Nc2cccnc2Nc2ccc(O)cc2)cc1 [ABT-751] (max concentration tested 10000 nM)  percent inhibition of viability          %     83.4
3  Nc1cc(F)ccc1NC(=O)/C=C/c1cnn(C/C=C/c2ccccc2)c1 [RGFP966] (max concentration tested 10000 nM)  percent inhibition of viability          %     82.3
4  Cn1nnc2c(C(N)=O)ncn2c1=O [Temozolomide] (max concentration tested 100000 nM)  percent inhibition of viability          %     4.85
5  C1=N/C2=N/c3ccc(OCCN4CCCC4)c(c3)COC/C=C/COCc3cccc(c3)C(=C1)N2 [Pacritinib] (max concentration tested 10000 nM)  percent inhibition of viability          %      102
6  COc1cc2c(cc1-c1c(C)noc1C)ncc1[nH]c(=O)n([C@H](C)c3ccccn3)c12 [I-BET151] (max concentration tested 10000 nM)  percent inhibition of viability          %       75
7  CC(C)(C#N)c1cc(Cn2cncn2)cc(C(C)(C)C#N)c1 [Anastrozole] (max concentration tested 10000 nM)  percent inhibition of viability          %     1.34
8  CN(C)/N=N/c1[nH]cnc1C(N)=O [Dacarbazine] (max concentration tested 10000 nM)  percent inhibition of viability          %    -2.93
